Dear all, this message contains IC50 results, target or system Estrogen receptor beta (Homo sapiens).
Only the number, expressed in µM, is required.

Incoming: I am curious: what IC50 value has been reported for Cc1c(-c2ccc(O)cc2)n(CCCCCCN2CCCC2)c2ccc(O)cc12 ?
Outgoing: 0.242

Incoming: Tell me the measured IC50 of Cc1c(-c2ccc(O)cc2)n(Cc2ccc(OCCN3CCCCC3)cc2)c2ccc(O)cc12 [PIPENDOXIFENE] , please.
Outgoing: 0.04

---

- ASSAY_TARGET: Estrogen receptor (Homo sapiens, UniProt P03372)
- Sequence (P03372 whole entry): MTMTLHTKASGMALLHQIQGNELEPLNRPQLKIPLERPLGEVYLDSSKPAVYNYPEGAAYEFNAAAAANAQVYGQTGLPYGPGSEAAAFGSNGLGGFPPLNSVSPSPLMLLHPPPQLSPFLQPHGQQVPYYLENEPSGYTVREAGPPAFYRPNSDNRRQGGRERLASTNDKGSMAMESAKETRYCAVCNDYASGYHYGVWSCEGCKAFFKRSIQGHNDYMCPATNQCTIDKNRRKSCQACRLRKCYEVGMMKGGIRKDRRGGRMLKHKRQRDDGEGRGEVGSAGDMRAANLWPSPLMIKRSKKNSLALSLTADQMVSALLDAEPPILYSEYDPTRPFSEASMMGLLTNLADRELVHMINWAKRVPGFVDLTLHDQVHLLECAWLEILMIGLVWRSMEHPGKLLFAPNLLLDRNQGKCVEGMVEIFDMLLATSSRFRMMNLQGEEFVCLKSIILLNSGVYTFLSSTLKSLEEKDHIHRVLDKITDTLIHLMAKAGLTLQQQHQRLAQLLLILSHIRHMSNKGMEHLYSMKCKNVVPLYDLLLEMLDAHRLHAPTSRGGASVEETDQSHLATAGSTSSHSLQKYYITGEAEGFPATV
- PROCEDURE_DETAILS: In vitro antagonist effect on estrogen receptor alpha transcriptional activation in MCF-7 cells against 10 pM 17-beta-estradiol
ENDPOINT_LABEL: pIC50
On this scale, pIC50 is minus log10 of a concentration expressed in M (mol/L).

Incoming: Consider the compound Cc1c(-c2ccc(O)cc2)n(CCCCCCN2CCCC2)c2ccc(O)cc12 and give its measured pIC50.
Outgoing: 7.16

---

- ASSAY_TARGET: Estrogen receptor (Homo sapiens)
- PROCEDURE_DETAILS: In vitro inhibition of [3H]17-beta-estradiol binding to human estrogen receptor alpha
ENDPOINT_LABEL: pIC50
Quick note: pIC50 values are minus log10 of concentrations in mol/L.

Incoming: Query pIC50 on Estrogen receptor (Homo sapiens) for Cc1c(-c2ccc(O)cc2)n(CCCCCCN2CCCC2)c2ccc(O)cc12
Outgoing: 7.60
